- System: Heliothis armigera
- Procedure Details: Insecticidal activity, artificial feed surface coating method
- Format: in vivo
- Condition Details: 500 mg/L test solution
Observed Property: Insecticidal activity (mortality rate grade) Heliothis armigera

Batch: Insecticidal activity (mortality rate grade) Heliothis armigera for all items listed.
1. CC1=NNC(=O)N(N=Cc2ccc[n+](CC=CS(=O)(=O)[O-])c2)C1
2. CC1=NNC(=O)N(N=Cc2ccc[n+](CCCS(=O)(=O)[O-])c2)C1
3. CC(=O)N1N=C(C)CN(N=Cc2ccc[n+](CC=CS(=O)(=O)[O-])c2)C1=O
4. CC(=O)N1N=C(C)CN(N=Cc2ccc[n+](CCCS(=O)(=O)[O-])c2)C1=O

stdout:
0 (mortality rate of 0˜30%)
3 (30˜50%)
3 (30˜50%)
5 (50-70%)
